Molecular target: EGFR tyrosine kinase (Homo sapiens, UniProt P00533)
Construct: Recombinant intracellular fragments of EGFR, erbB2 and erbB4; made in house; host or cells: baculovirus/Sf21 insect cells (cleared lysate used)
Sequence (P00533 669-1210 limits assumed): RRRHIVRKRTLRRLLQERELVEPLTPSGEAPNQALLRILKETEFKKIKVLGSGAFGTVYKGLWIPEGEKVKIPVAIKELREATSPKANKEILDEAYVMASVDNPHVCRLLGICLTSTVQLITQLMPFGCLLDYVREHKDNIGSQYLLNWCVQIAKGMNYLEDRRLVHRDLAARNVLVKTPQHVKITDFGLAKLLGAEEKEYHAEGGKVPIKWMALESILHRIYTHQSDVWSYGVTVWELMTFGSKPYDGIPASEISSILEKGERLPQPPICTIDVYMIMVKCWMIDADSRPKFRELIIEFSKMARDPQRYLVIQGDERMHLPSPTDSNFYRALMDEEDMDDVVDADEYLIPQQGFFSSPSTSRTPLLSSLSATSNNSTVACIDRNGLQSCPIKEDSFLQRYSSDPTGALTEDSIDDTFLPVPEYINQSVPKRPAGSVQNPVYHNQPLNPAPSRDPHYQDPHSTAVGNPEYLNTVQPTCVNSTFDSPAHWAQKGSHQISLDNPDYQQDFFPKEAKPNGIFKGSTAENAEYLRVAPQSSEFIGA
Test: Protein tyrosine kinase phosphorylation assay, Test (a), EGFR
Type: biochemical
Conditions: read-out: IC50 (μM) Test (a): Inhibition of EGFR tyrosine kinase protein phosphorylation
endpoint name: IC50

- structure smiles: "O=C(CO)N1CCC[C@H](COc2cccc3ncnc(Nc4ccc(OCc5cscn5)c(Cl)c4)c23)C1"
  test value: "2.4 µM"
- structure smiles: "Cc1cccc(COc2ccc(Nc3ncnc4cccc(OC[C@@H]5CCCN5C(=O)CO)c34)cc2Cl)n1"
  test value: "33 µM"

====

# maps each entry to its IC50
Target: erbB2 tyrosine kinase (Homo sapiens, UniProt P04626)
Construct: Recombinant intracellular fragments of EGFR, erbB2 and erbB4; made in house; host or cells: baculovirus/Sf21 insect cells (cleared lysate used)
Sequence (P04626 676-1255 limits assumed): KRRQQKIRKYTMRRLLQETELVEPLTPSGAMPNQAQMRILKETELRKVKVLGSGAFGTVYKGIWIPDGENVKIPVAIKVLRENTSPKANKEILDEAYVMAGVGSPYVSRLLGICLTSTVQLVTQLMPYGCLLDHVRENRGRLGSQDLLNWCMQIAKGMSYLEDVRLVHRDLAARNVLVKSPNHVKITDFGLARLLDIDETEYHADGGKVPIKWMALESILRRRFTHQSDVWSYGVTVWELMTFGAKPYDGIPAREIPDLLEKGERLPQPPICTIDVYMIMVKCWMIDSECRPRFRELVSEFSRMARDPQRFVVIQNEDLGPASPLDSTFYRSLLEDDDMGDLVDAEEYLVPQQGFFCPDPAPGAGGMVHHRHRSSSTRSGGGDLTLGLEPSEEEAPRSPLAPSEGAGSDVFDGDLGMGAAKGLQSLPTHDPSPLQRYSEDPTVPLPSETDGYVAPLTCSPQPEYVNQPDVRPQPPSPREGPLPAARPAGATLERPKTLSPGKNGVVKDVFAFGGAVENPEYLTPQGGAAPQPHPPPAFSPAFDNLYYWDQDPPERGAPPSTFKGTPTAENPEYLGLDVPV
Assay: Protein tyrosine kinase phosphorylation assay, Test (a), erbB2
Type: biochemical
Settings: read-out: IC50 (μM) Test (a): Inhibition of erbB2 tyrosine kinase protein phosphorylation

- compound: "CN(C)CC(=O)N1CCC[C@@H]1COc1cccc2ncnc(Nc3ccc(OCc4cncs4)c(Cl)c3)c12 [Example 25]"
  IC50 (µM): 0.048
- compound: "O=C(CO)N1CCC[C@H](COc2cccc3ncnc(Nc4ccc(OCc5cscn5)c(Cl)c4)c23)C1 [Example 78]"
  IC50 (µM): 0.034
- compound: "Cc1cccc(COc2ccc(Nc3ncnc4cccc(OC[C@@H]5CCCN5C(=O)CO)c34)cc2Cl)n1 [Example 40]"
  IC50 (µM): 0.63

====

# maps each entry to its IC50
Biological target: erbB2 (Homo sapiens)
Construct: a cell line that overexpresses full length wild type erbB2 protein; expressed in transfected cells; host or cells: MCF7 (breast carcinoma) derived 'Clone 24' cells
Sequence (P04626 23-1255): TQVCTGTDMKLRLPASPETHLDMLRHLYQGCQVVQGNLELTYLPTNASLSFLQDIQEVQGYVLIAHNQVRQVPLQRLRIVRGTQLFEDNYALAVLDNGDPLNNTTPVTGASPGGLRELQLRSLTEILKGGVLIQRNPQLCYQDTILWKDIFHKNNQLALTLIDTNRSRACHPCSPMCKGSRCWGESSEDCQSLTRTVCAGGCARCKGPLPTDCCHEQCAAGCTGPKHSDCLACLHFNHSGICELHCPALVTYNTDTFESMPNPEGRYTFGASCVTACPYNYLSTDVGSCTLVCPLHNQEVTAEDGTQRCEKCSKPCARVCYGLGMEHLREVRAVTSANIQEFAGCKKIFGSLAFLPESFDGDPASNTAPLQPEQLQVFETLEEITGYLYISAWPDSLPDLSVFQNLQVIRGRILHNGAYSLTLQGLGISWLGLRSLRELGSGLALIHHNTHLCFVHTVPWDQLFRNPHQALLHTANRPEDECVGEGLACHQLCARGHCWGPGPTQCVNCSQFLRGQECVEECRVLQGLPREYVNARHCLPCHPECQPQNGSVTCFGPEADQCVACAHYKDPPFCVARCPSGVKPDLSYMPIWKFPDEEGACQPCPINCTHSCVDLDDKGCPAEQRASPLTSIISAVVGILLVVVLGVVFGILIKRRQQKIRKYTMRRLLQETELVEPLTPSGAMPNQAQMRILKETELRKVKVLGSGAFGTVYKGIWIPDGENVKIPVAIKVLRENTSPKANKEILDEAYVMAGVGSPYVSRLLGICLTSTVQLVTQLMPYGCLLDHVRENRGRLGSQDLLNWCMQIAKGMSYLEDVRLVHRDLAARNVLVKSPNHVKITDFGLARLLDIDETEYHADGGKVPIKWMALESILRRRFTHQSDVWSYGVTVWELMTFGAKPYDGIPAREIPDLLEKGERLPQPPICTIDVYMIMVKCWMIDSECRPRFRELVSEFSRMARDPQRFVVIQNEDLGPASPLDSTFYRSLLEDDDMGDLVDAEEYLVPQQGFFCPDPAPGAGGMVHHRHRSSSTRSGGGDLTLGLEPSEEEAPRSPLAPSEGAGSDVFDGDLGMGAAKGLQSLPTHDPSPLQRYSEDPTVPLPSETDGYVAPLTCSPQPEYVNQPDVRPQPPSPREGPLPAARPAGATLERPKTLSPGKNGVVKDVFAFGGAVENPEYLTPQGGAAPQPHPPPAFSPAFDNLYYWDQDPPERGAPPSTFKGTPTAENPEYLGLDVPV
Assay: Clone 24 phospho-erbB2 cell assay, Test (c)
Format: cell-based
Details: MCF7 derived cell line overexpressing erbB2 (Clone 24 cells); read-out: IC50 (μM) Test (c): Inhibition of erbB2 tyrosine kinase protein phosphorylation

- compound: "O=C(CO)N1CCC[C@H](COc2cccc3ncnc(Nc4ccc(OCc5cscn5)c(Cl)c4)c23)C1 [Example 78]"
  target under test: "erbB2 (Homo sapiens)"
  IC50 / µM: 0.19
- compound: "Cc1cccc(COc2ccc(Nc3ncnc4cccc(OC[C@@H]5CCCN5C(=O)CO)c34)cc2Cl)n1 [Example 40]"
  target under test: "erbB2 (Homo sapiens)"
  IC50 / µM: 2.4
- compound: "CN(C)CC(=O)N1CCC[C@@H]1COc1cccc2ncnc(Nc3ccc(OCc4cncs4)c(Cl)c3)c12 [Example 25]"
  target under test: "erbB2 (Homo sapiens)"
  IC50 / µM: 1.4
